The values you see were collected from patent US20240360242A1.

Give measured EC50 for each item. Keep answers brief.
Target of assay: T1, recombinant human TROP2 extracellular domain (aa 1-274) comprising His tag (human, UniProt P09758 27-274)
T1 construct: Used here for all assays on recombinant human TROP2 (ELISA, immunoblot, SPR, crystal), although only some of them name the catalogue number; also called human recombinant TROP2; recombinant human TROP2 protein; not shown: His tag
T1 sequence: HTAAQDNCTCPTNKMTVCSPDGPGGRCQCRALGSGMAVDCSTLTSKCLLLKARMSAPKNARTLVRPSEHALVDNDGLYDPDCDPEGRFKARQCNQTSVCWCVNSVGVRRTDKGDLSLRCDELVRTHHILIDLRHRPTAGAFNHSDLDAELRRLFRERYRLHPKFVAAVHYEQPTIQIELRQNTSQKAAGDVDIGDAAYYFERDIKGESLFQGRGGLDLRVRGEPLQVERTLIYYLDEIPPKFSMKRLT
Protocol description: ELISA, coated rh TROP2

These solved cases illustrate the format of a correct answer.
{"Binder": "KD052 (antibody, V domains shown, KD005 humanized variant) VH: EVQLVESGGGLIQPGGSLRLSCAASGFTFSGSDMSWVRQAPGKGLEWVSVITSGGTTYYADTVKGRFTISRDNSKNTLYLQMNSLRAEDTAVYYCAKSRLTDSHYVEDAWGQGTLVTVSS", "EC50": "0.07 nM"}
{"Binder": "KD056 (antibody, V domains shown, KD005 humanized variant) VH: QVQLVESGGGLIQPGGSLRLSCAASGFTFSGSDMSWVRQAPGKGLEWVSYITSGGTTYYADTVKGRFTISRDNSKNTLYLQMNSLRAEDTAVYRCAKSRLTDSHYVEDAWGQGTLVTVSS", "EC50": "0.09 nM"}
{"Binder": "KD055 (antibody, V domains shown, KD005 humanized variant) VH: EVQLQESGGGLIQPGGSLRLSCAASGFTFSGSDMSWVRQAPGKGLEWVSYITSGGTTYYADTVKGRFTISRDNSKNTLYLQMNSLRAEDTAVYRCAKSRLTDSHYVEDAWGQGTLVTVSS", "EC50": "0.08 nM"}

// for each binder below, give its EC50
1. KD048 (antibody, V domains shown, KD005 humanized variant) VH: QVQLQESGGGLVQPGGSLRLSCAASGFTFSGSDMSWVRQAPGKGPEWVSYITSGGTTYYPDTVKGRFTISRDNSKNTLYLQMNSLRAEDTAVYYCAKSRLTDSHYVEDAWGQGTQVTVSS
2. KD064 (antibody, V domains shown, KD005 humanized variant with framework 2 changes) VH: QVQLQESGGGLIQPGGSLRLSCAASGFTFSGSDMSWYRQAPGKGREWVSYITSGGTTYYADTVKGRFTISRDNSKNTLYLQMNSLRAEDTAVYRCAKSRLTDSHYVEDAWGQGTLVTVSS
3. KD043 (antibody, V domains shown, KD005 humanized variant) VH: EVQLLESGGGLVQPGGSLRLSCAASGFTFSGSDMSWVRQAPGKGLEWVSAITSGGTTYYADTVKGRFTISRDNSKNTLYLQMNSLRAEDTAVYYCAKSRLTDSHYVEDAWGQGTLVTVSS
4. KD057 (antibody, V domains shown, KD005 humanized variant) VH: QVQLQESGGGLIQPGGSLRLSCAASGFTFSGSDMSWVRQAPGKGLEWVSVITSGGTTYYADTVKGRFTISRDNSKNTLYLQMNSLRAEDTAVYRCAKSRLTDSHYVEDAWGQGTLVTVSS
5. KD053 (antibody, V domains shown, KD005 humanized variant) VH: QVQLQESGGGLIQPGGSLRLSCAASGFTFSGSDMSWVRQAPGKGPEWVSYITSGGTTYYPDTVKGRFTISRDNSKNTLYLQMNSLRADDTALYRCAKSRLTDSHYVEDAWGQGTLVTVSS

Output line:
1. 0.11 nM
2. 0.14 nM
3. 0.09 nM
4. 0.09 nM
5. 0.1 nM
